B1: FBF1 (parent)
chain: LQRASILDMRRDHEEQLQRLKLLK

Variants of: B1
PROTOCOL_DESCRIPTION: protein stability index of a GFP-peptide fusion (GPS, HEK-293T) (PSI 1-6); higher = more stable;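 also: lentivirally expressed fusions sorted by FACS into six bins by GFP to DsRed ratio, PSI derived from sequencing read proportions per bin multiplied by bin number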
PARTICULARS: c terminus: a fixed tail appended
OUTCOME_MEASURE: protein stability index

LQRASILDMRRDHEEQLQRLKLLN    3.55
LQRASILDVRRDHEEQLQRLKLLK    3.61
LQRASILDMRRDHEEQWQRLKLLK    2.96
LQRASILDMRRHHEEQLQRLKLLK    3.3
LQRASILDMRRDHEEQLMRLKLLK    2.86
LQRASILDMRWDHEEQLQRLKLLK    2.64
LQRASILMMRRDHEEQLQRLKLLK    3.06
LQRASILDMRRDHEEQLQRLSLLK    3.21
LQRASILDMRRCHEEQLQRLKLLK    2.51
LQRASILDMRRDHEEQLQRLKLRK    3.94
LQRASIIDMRRDHEEQLQRLKLLK    3.09
LQRASILDMRRDHYEQLQRLKLLK    3.04
